Recorded values, source paper PMC3691274.

- Assayed System: Anabaena ADP-Glc PPase (Nostoc sp. PCC 7120 = FACHB-418, UniProt P30521, W96A)
- Construct: recombinant from plasmid pAnaE3a in E. coli AC70R1-504, purified, homotetramer, no tag mentioned
- Sequence (P30521 whole entry W96A): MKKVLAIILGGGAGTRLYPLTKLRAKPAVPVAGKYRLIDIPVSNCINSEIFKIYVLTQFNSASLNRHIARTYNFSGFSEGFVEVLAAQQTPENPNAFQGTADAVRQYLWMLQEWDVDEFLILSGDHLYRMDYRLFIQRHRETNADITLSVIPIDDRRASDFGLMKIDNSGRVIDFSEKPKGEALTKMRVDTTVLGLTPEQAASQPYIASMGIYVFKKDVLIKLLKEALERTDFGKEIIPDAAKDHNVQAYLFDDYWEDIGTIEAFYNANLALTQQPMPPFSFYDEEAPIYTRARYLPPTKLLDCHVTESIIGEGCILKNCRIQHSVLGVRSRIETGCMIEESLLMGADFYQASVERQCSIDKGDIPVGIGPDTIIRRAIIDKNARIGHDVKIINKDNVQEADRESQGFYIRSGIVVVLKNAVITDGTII
- Assay Summary: colorimetric Pi release assay (PPi hydrolysed by pyrophosphatase), Hill fit
- Condition Summary: read-out: A 0.5
Measured Endpoint: EC50 (µM)
Only the number, expressed in µM, is required.

Query block: Entry O=C(O)[C@H](O)COP(=O)(O)O [3-PGA, 3-phosphoglycerate] has what EC50?
Result block: 83

====

- Assayed System: potato tuber ADP-Glc PPase (StuS/StuL) (Solanum tuberosum, UniProt P23509+Q00081)
- Sequence (P23509 71-521 limits assumed): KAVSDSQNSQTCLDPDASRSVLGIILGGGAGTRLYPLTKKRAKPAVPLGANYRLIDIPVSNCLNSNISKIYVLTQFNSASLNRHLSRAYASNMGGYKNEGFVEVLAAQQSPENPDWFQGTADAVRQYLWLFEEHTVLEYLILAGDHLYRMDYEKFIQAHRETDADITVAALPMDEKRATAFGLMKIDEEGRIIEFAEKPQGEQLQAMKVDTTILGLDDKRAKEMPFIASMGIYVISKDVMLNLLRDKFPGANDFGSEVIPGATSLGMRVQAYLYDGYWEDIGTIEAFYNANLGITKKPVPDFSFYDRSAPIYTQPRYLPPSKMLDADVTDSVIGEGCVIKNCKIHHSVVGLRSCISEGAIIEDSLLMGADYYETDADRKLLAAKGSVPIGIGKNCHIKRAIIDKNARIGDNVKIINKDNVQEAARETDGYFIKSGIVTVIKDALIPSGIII
- Sequence (Q00081 7-470): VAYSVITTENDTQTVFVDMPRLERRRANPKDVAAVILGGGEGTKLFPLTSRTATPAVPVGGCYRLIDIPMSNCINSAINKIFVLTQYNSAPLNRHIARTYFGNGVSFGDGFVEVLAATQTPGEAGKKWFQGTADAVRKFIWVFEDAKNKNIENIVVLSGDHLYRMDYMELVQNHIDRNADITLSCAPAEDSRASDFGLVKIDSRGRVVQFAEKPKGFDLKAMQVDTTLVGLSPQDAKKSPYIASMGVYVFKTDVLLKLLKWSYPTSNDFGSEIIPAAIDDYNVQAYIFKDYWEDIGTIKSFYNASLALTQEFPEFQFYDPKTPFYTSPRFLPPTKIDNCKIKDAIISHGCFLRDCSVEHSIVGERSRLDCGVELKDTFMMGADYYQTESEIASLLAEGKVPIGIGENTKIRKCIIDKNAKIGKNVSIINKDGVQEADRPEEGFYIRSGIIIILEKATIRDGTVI
- Condition Summary: read-out: A 0.5; allosteric activator; 1.5 mM ATP, 0.5 mM [14C]Glc-1P, 7 mM MgCl2, 50 mM HEPPS pH 8.0, 37°C
Measured Endpoint: pEC50
Just so you know, pEC50 here is -log10 of the concentration in molar units; reply with that number alone.

Query block: Given O=C(O)[C@H](O)COP(=O)(O)O [3-PGA, 3-phosphoglycerate] , state its recorded pEC50.
Result block: 4.27

====

- Assayed System: Anabaena ADP-Glc PPase (Ana WT) (Nostoc sp. PCC 7120 = FACHB-418, UniProt P30521)
- Construct: recombinant from plasmid pAnaE3a in E. coli AC70R1-504, purified, homotetramer, no tag mentioned
- Sequence (P30521 whole entry): as the sequence (P30521 whole entry W96A) above, with A96W counted along it
- Assay Summary: colorimetric Pi release assay (PPi hydrolysed by pyrophosphatase), Hill fit
- Condition Summary: read-out: A 0.5
Measured Endpoint: pEC50
On this scale, pEC50 is minus log10 of a concentration expressed in M (mol/L).

Query block: Short answer please: pEC50, Anabaena ADP-Glc PPase (Ana WT) (Nostoc sp. PCC 7120 = FACHB-418, UniProt P30521), entry O=C(O)[C@H](O)COP(=O)(O)O [3-PGA, 3-phosphoglycerate]
Result block: 4.12
